tested on: DU-145; test: Clonogenic test series (7 d) in DU-145 prostate cancer cells; format: cell-based; conditions: Homo sapiens, DU-145, 168 h
Experimental readout: IC50 (µM)
Give bare numbers, in µM.

Some molecules with recorded IC50:
Molecule | Tested target | IC50 (µM)
COc1ccc(C=Cc2cc(OC)c(OC)c(OC)c2)cc1 | DU-145 | 0.4
Oc1cc(O)cc(C=Cc2cc(O)cc(O)c2)c1 [M6, 3,3′,5,5′-Tetrahydroxystilbene] | DU-145 | 17

Quick request: IC50 for each listed item, please.
1. COc1cc(C=Cc2cc(OC)c(OC)c(OC)c2)cc(OC)c1
2. COc1cc(C=Cc2cc(OC)c(OC)c(OC)c2)cc(OC)c1OC

[reply]
1: 68; 2: 12.5
